Molecular target: CYP11B1 (Homo sapiens, UniProt P15538)
Construct: the NCI-H295R cells have Cyp11 B1 (steroid 11 β-hydroxylase); host or cells: NCI-H295R
Sequence (P15538 25-503): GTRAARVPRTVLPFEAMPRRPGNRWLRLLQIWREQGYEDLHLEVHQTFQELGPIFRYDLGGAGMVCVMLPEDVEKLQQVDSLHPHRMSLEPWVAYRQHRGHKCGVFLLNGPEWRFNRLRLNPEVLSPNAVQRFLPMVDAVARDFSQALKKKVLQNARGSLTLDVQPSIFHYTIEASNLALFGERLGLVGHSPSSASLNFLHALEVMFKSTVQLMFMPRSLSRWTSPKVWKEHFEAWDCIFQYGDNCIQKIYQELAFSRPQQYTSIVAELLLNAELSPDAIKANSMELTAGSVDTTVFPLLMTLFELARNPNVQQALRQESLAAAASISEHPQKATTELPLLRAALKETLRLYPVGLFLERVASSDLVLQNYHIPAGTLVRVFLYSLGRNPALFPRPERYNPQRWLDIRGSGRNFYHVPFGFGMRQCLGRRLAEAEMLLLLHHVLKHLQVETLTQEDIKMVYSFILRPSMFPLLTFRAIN
Experiment: Cortisol cell secretion in NCI-H295R cells (CYP11B1 activity)
Format: cell-based
Settings: NCI-H295R, compound at 1 μM, read-out: Cortisol cell secretion (% Inhib. @ 1 μM)
assay-metric: inhibition at 1 µM (%)
API: value field is a number in %; no unit string.

// lookup inhibition at 1 µM for Cc1ccncc1-c1ccc2oc(=O)n(C)c2c1
82

Also Cn1c(=O)oc2ccc(-c3cncc(C(O)C4CC4)c3)cc21 (single isomer, unassigned) [Example 13 Enantiomer 1] , if possible.
64

Also Cn1c(=O)oc2ccc(-c3cncc(CCO)c3)cc21 , if possible.
57

Also Cn1c(=O)oc2ccc(-c3cncc(CO)c3)cc21 , if possible.
83
